Catalogue of molecules with associated Cmax
- TEST_DESCRIPTION: Cmax in ICR mouse at 80 mg/kg, po
- Format: ADME, organism-based
- Design: dose 80 mg/kg, route oral
- CONDITION_SUMMARY: in vivo
Quick note: give the figure in ng/mL, leave out the unit.

molecule `CCN(CC)CCC/N=C(\C)N(CCCN(CC)CC)c1c2ccc(Cl)cc2nc2ccc(OC)nc12` , Cmax observed: 222

The reported Cmax of the molecule `CCN(CC)CCCN/C(=N\c1ccnc2cc(Cl)ccc12)C(C)C` was 696

* * *

- Tested on: Salmonella typhi
- TEST_DESCRIPTION: Mutagenicity in Salmonella typhi by Ames test
- Assay type: toxicity, organism-based
- CONDITION_SUMMARY: salmonella enterica subsp. enterica […]

STRUCTURE_SMILES: CCN(CC)CCC/N=C(\C)N(CCCN(CC)CC)c1c2ccc(Cl)cc2nc2ccc(OC)nc12
Activity: Non-toxic
//
STRUCTURE_SMILES: CN(C)CCCN/C(=N\c1ccnc2cc(Cl)ccc12)c1ccccc1
Activity: Non-toxic
//
STRUCTURE_SMILES: COc1ccc2nc3cc(Cl)ccc3c(N/C(=N/CCCN(C)C)c3ccc(Cl)cc3)c2n1
Activity: Non-toxic
//
STRUCTURE_SMILES: CN(C)CCCN/C(=N\c1ccnc2cc(Cl)ccc12)c1ccc(Cl)cc1
Activity: Non-toxic

* * *

- TEST_DESCRIPTION: Mean residence time in ICR mouse at 80 mg/kg, po
- Format: ADME, organism-based
- Design: dose 80 mg/kg, route oral
- CONDITION_SUMMARY: in vivo
Recorded MRT values for a group of molecules are listed next.
Your answer is read as h, so omit the unit and give the number.

STRUCTURE_SMILES: CCN(CC)CCCN/C(=N\c1ccnc2cc(Cl)ccc12)C(C)C
DATA_VALUE: 7.64

MRT measured on `CCN(CC)CCC/N=C(\C)N(CCCN(CC)CC)c1c2ccc(Cl)cc2nc2ccc(OC)nc12` = 22.1

* * *

- TEST_DESCRIPTION: Half life in human liver microsomes at 1 uM by LC/MS analysis
- Assay type: ADME
A collection of compounds and their measured half-life at 1 µM
Answer with a number only, understood to be in min.

STRUCTURE_SMILES: CCN(CC)CCCN/C(=N\c1ccnc2cc(Cl)ccc12)c1cccnc1
DATA_VALUE: 36

STRUCTURE_SMILES: COc1ccc2nc3cc(Cl)ccc3c(N/C(=N/CCCN3CCCCC3)C(C)C)c2n1
DATA_VALUE: 9

STRUCTURE_SMILES: C/C(=N/c1ccnc2cc(Cl)ccc12)NCCc1ccncc1
DATA_VALUE: 47

STRUCTURE_SMILES: COc1ccc2nc3cc(Cl)ccc3c(N/C(=N/CCCN3CCCCC3)c3ccccc3)c2n1
DATA_VALUE: 9

STRUCTURE_SMILES: COc1ccc2nc3cc(Cl)ccc3c(N/C(=N/CCCN(C)C)C(C)C)c2n1
DATA_VALUE: 33

STRUCTURE_SMILES: CC(C)/C(=N/c1ccnc2cc(Cl)ccc12)NCCCN1CCCCC1
DATA_VALUE: 29

STRUCTURE_SMILES: Clc1ccc2c(/N=C(\NCCCN3CCCCC3)c3ccccc3)ccnc2c1
DATA_VALUE: 12

STRUCTURE_SMILES: CCN(CC)CCC/N=C(\C)Nc1c2ccc(Cl)cc2nc2ccc(OC)nc12
DATA_VALUE: 33

STRUCTURE_SMILES: CCN(CC)CCCCCN/C(C)=N\c1ccnc2cc(Cl)ccc12
DATA_VALUE: 56

STRUCTURE_SMILES: CCN(CC)CCC/N=C(/Nc1c2ccc(Cl)cc2nc2ccc(OC)nc12)c1ccccc1
DATA_VALUE: 16

Okay, now this compound:
Please fill in: half-life at 1 µM reported for `CCN(CC)CCC/N=C(/Nc1c2ccc(Cl)cc2nc2ccc(OC)nc12)C(C)C` = 20

* * *

- System: Plasmodium falciparum
- TEST_DESCRIPTION: Antimalarial activity against chloroquine-resistant Plasmodium falciparum C235 assessed as growth inhibition after 18 hrs by [3H]-hypoxanthine uptake assay
- Assay type: functional, organism-based
// values below are reported pIC50
Recall that pIC50 is obtained by taking minus log10 of the concentration measured in molar.

STRUCTURE_SMILES: CCN(CC)CCCN/C(=N\c1ccnc2cc(Cl)ccc12)C(C)C
TARGET_OR_SYSTEM: Plasmodium falciparum
pIC50: 7.59
//
STRUCTURE_SMILES: CCN(CC)CCCN/C(=N\c1ccnc2cc(Cl)ccc12)c1ccccc1
TARGET_OR_SYSTEM: Plasmodium falciparum
pIC50: 8.48
//
STRUCTURE_SMILES: COc1ccc2nc3cc(Cl)ccc3c(N/C(=N/CCCN3CCCCC3)C(C)C)c2n1
TARGET_OR_SYSTEM: Plasmodium falciparum
pIC50: 8.71

Switching to the query record.
# compound `CCN(CC)CCC/N=C(/N=c1\ccn(CCCN(CC)CC)c2cc(Cl)ccc12)c1cccnc1` ; its pIC50 = 5.57

* * *

- TARGET_OR_SYSTEM: UniProt Q12809
- Sequence (Q12809 whole entry): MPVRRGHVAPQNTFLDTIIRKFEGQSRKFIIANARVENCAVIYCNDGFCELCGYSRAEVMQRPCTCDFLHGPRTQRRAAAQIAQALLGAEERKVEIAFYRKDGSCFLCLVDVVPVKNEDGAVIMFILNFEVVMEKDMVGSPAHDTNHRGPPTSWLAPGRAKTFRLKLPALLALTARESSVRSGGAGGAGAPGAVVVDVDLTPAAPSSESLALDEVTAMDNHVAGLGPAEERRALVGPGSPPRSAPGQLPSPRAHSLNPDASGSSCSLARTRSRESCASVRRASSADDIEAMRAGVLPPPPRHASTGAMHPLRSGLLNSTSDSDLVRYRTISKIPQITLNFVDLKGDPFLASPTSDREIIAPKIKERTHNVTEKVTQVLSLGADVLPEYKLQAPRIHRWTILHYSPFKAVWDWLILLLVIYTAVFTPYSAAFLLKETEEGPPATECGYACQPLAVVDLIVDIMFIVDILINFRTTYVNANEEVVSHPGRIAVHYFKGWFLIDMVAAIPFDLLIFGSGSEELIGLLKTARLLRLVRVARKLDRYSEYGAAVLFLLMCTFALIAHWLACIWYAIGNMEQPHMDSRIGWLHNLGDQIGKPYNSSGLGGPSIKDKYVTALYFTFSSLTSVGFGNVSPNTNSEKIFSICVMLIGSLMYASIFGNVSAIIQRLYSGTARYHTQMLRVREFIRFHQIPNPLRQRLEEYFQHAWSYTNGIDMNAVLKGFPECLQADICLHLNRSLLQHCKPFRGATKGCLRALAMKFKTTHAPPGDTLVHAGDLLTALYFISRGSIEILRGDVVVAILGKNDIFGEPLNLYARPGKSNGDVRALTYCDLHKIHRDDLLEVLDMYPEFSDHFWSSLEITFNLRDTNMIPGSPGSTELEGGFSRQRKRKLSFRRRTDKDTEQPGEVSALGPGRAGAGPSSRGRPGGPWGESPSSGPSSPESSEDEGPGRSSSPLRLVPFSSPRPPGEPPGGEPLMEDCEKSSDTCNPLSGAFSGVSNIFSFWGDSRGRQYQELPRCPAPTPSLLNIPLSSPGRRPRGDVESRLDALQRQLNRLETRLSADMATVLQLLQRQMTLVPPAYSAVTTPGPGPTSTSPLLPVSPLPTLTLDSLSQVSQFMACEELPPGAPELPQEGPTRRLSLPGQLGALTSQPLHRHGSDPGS
- TEST_DESCRIPTION: Inhibition of human ERG expressed in CHL cells assessed as tail current at 10 uM after 7 mins by patch clamp assay relative to control
- Format: cell-based
- CONDITION_SUMMARY: CHL cells expressing human ERG
QUANTITY_MEASURED: inhibition at 7 min, 10 µM (%)
Numeric only. Scale: %

STRUCTURE_SMILES: COc1ccc2nc3cc(Cl)ccc3c(N(CCCN(C)C)/C(C)=N/CCCN(C)C)c2n1
inhibition at 7 min, 10 µM (%): 18.3
//
STRUCTURE_SMILES: CC(C)/C(=N/c1ccnc2cc(Cl)ccc12)NCCCN1CCCCC1
inhibition at 7 min, 10 µM (%): 74.5
//
STRUCTURE_SMILES: COc1ccc2nc3cc(Cl)ccc3c(N/C(=N/CCCN(C)C)c3ccc(Cl)cc3)c2n1
inhibition at 7 min, 10 µM (%): 77
//
STRUCTURE_SMILES: COc1ccc2nc3cc(Cl)ccc3c(N/C(C)=N/CCCN3CCCCC3)c2n1
inhibition at 7 min, 10 µM (%): 94.5

Now, please, on to the next compound.
For reference, reported inhibition at 7 min, 10 µM for `CN(C)CCCN/C(=N\c1ccnc2cc(Cl)ccc12)c1ccccc1` stands at 90.6

* * *

- TARGET_OR_SYSTEM: UniProt Q12809
- TEST_DESCRIPTION: Inhibition of human ERG expressed in CHL cells assessed as tail current at 10 uM after 7 mins by patch clamp assay relative to control
- Type: cell-based
- CONDITION_SUMMARY: CHL cells expressing human ERG
Quick list: inhibition at 7 min, 10 µM per entry.
Form field: result (number plus unit)

Past entries and their recorded results:
COMPOUND: C/C(=N/c1ccnc2cc(Cl)ccc12)NCCCN1CCCCC1
inhibition at 7 min, 10 µM: 27.7%

COMPOUND: OC(c1cc(C(F)(F)F)nc2c(C(F)(F)F)cccc12)C1CCCCN1 (stereo not given)
inhibition at 7 min, 10 µM: 95%

COMPOUND: COc1ccc2nc3cc(Cl)ccc3c(N/C(=N/CCCN(C)C)C(C)C)c2n1
inhibition at 7 min, 10 µM: 72.1%

Reported inhibition at 7 min, 10 µM ( `CCN(CC)CCC/N=C(/Nc1c2ccc(Cl)cc2nc2ccc(OC)nc12)c1cccnc1` ) = 63%

Note to self: inhibition at 7 min, 10 µM recorded for `COc1ccc2nc3cc(Cl)ccc3c(N/C(=N/CCCN3CCCCC3)C(C)C)c2n1` was 69.6%

* * *

- TEST_DESCRIPTION: Half life in human liver microsomes at 1 uM by LC/MS analysis
- Assay type: ADME
QUANTITY_MEASURED: half-life at 1 µM

Here's what some known entries look like.
COMPOUND: C/C(=N/c1ccnc2cc(Cl)ccc12)NC1CCN(C)CC1
half-life at 1 µM: > 60 min
--
COMPOUND: CCN(CC)CCCC(C)Nc1ccnc2cc(Cl)ccc12 (stereo unspecified)
half-life at 1 µM: > 60 min
--
COMPOUND: CCN(CC)CC(C)(C)C/N=C(/Nc1c2ccc(Cl)cc2nc2ccc(OC)nc12)c1ccccc1
half-life at 1 µM: > 60 min

`C/C(=N/c1ccnc2cc(Cl)ccc12)NC1CCN(C(C)C)CC1` has a reported half-life at 1 µM of > 60 min

half-life at 1 µM for `COc1ccc2nc3cc(Cl)ccc3c(N(CCCN(C)C)/C(C)=N/CCCN(C)C)c2n1` is > 60 min

Reported half-life at 1 µM of `CCN(CC)CCCN/C(C)=N\c1ccnc2cc(Cl)ccc12` : > 60 min

* * *

- TEST_DESCRIPTION: Half life in human liver microsomes at 1 uM by LC/MS analysis
- Type: ADME
QUANTITY_MEASURED: half-life at 1 µM (min)
Could you give me the number in min? Just the number is fine.

STRUCTURE_SMILES: CC(C)/C(=N/c1ccnc2cc(Cl)ccc12)NCCCCN1CCCCC1
UNIT_DESCRIPTOR: min
half-life at 1 µM: 29
//
STRUCTURE_SMILES: CC(C)/C(=N/c1ccnc2cc(Cl)ccc12)NC1CCN(Cc2ccccc2)CC1
UNIT_DESCRIPTOR: min
half-life at 1 µM: 25
//
STRUCTURE_SMILES: COc1ccc2nc3cc(Cl)ccc3c(N/C(C)=N/CCCN3CCCCC3)c2n1
UNIT_DESCRIPTOR: min
half-life at 1 µM: 14
//
STRUCTURE_SMILES: CCN(CC)CCN/C(C)=N\c1ccnc2cc(Cl)ccc12
UNIT_DESCRIPTOR: min
half-life at 1 µM: 26

Kindly consider the entry below.
half-life at 1 µM for `COc1ccc2nc3cc(Cl)ccc3c(N/C(=N/CCCN(C)C)c3ccccc3)c2n1` is 18
